test system: Plasmodium berghei; assay: Luciferase/luciferin-expressing antifolate-resistant parasites were used to infect a culture of HepG2 cells that were pre-incubated with compounds. Infected hepatocytes emit light due to the luciferase reaction. Assay results are presented as the percent inhibition of light emission compared to control. […]; assay type: functional; details: sporozoite, HEPG2TOX_HILL_SLOPE 3.56, HEPG2TOX_R_SQUARED 0.576, PBLUC_HILL_SLOPE 6.46, PBLUC_R_SQUARED 0.101, read-out: LUCIFERASE INFECTION ASSAY - IC50
READOUT_TYPE: IC50

IC50 value, target or system Plasmodium berghei, for `COc1cc(Nc2ncc3c(n2)CCN(C(=O)Nc2ccc(F)c(Cl)c2)C3)cc(OC)c1OC` : 5.03 µM

---

system: Plasmodium berghei; assay: Luciferase/luciferin-expressing antifolate-resistant parasites were used to infect a culture of HepG2 cells that were pre-incubated with compounds. Infected hepatocytes emit light due to the luciferase reaction. Assay results are presented as the percent inhibition of light emission compared to control. […]; assay type: functional; settings: sporozoite, HEPG2TOX_HILL_SLOPE 12.2, HEPG2TOX_R_SQUARED 0.863, PBLUC_HILL_SLOPE 25.1, PBLUC_R_SQUARED 0.833, read-out: LUCIFERASE INFECTION ASSAY - IC50
READOUT_TYPE: IC50 (µM)
Numeric only. Scale: µM

Lab book: IC50 of `Cc1ccc(NC(=O)/C(=C/c2cccc(F)c2)n2nnnc2C)cc1S(=O)(=O)N1CCCCCC1` noted as 3.89

---

system: Plasmodium berghei; test: Luciferase/luciferin-expressing antifolate-resistant parasites were used to infect a culture of HepG2 cells that were pre-incubated with compounds. Infected hepatocytes emit light due to the luciferase reaction. Assay results are presented as the percent inhibition of light emission compared to control. […]; assay type: functional; details: sporozoite, PBLUC_HILL_SLOPE 113, PBLUC_R_SQUARED 0.339, read-out: LUCIFERASE INFECTION ASSAY - IC50
READOUT_TYPE: IC50
Returns: string containing the number followed by the unit.

Lab book: IC50 of `Cc1cccc(Nc2ccccc2C(=O)OCC(=O)N2CCNC2=O)c1C` noted as 6.94 µM

---

tested on: Plasmodium berghei; assay: Luciferase/luciferin-expressing antifolate-resistant parasites were used to infect a culture of HepG2 cells that were pre-incubated with compounds. Infected hepatocytes emit light due to the luciferase reaction. Assay results are presented as the percent inhibition of light emission compared to control. […]; assay type: functional; conditions: sporozoite, PBLUC_HILL_SLOPE 0.854, PBLUC_R_SQUARED 0.483, read-out: LUCIFERASE INFECTION ASSAY - IC50
READOUT_TYPE: pIC50
pIC50 field: float, defined as -log10 of concentration (mol/L).

Lab book: pIC50 of `Clc1ccc(/C=C/c2cnc3ccccc3n2)cc1` noted as 5.69

---

tested on: Plasmodium berghei; test: Luciferase/luciferin-expressing antifolate-resistant parasites were used to infect a culture of HepG2 cells that were pre-incubated with compounds. Infected hepatocytes emit light due to the luciferase reaction. Assay results are presented as the percent inhibition of light emission compared to control. […]; format: functional; conditions: sporozoite, HEPG2TOX_HILL_SLOPE 2.43, HEPG2TOX_R_SQUARED 0.709, PBLUC_HILL_SLOPE 4.59, PBLUC_R_SQUARED 0.452, read-out: LUCIFERASE INFECTION ASSAY - IC50
READOUT_TYPE: pIC50
pIC50 field: float, defined as -log10 of concentration (mol/L).

Lab book: pIC50 of `Clc1ccccc1Nc1cc2c(cn1)ncn2Cc1ccco1` noted as 5.12

---

system: Plasmodium berghei; assay: Luciferase/luciferin-expressing antifolate-resistant parasites were used to infect a culture of HepG2 cells that were pre-incubated with compounds. Infected hepatocytes emit light due to the luciferase reaction. Assay results are presented as the percent inhibition of light emission compared to control. […]; format: functional; settings: sporozoite, HEPG2TOX_HILL_SLOPE 1.11, HEPG2TOX_R_SQUARED 0.954, PBLUC_HILL_SLOPE 1.54, PBLUC_R_SQUARED 0.355, read-out: LUCIFERASE INFECTION ASSAY - IC50
READOUT_TYPE: pIC50
pIC50 field: float, defined as -log10 of concentration (mol/L).

pIC50 value, target or system Plasmodium berghei, for `Cc1ccc(NC(=O)NC(=O)c2c(-c3snnc3C)noc2C)cc1` : 5.60

---

tested on: Plasmodium berghei; test: Luciferase/luciferin-expressing antifolate-resistant parasites were used to infect a culture of HepG2 cells that were pre-incubated with compounds. Infected hepatocytes emit light due to the luciferase reaction. Assay results are presented as the percent inhibition of light emission compared to control. […]; assay type: functional; conditions: sporozoite, FFLUC_HILL_SLOPE 2.39, FFLUC_R_SQUARED 0.896, PBLUC_HILL_SLOPE 0.607, PBLUC_R_SQUARED 0.989, read-out: LUCIFERASE INFECTION ASSAY - IC50
READOUT_TYPE: IC50 (nM)
Numeric only. Scale: nM

Lab book: IC50 of `O=C(Nc1nc2c(s1)CCC2)c1cnn(-c2ccccc2)c1C1CC1` noted as 10.8

---

system: Plasmodium berghei; experiment: Luciferase/luciferin-expressing antifolate-resistant parasites were used to infect a culture of HepG2 cells that were pre-incubated with compounds. Infected hepatocytes emit light due to the luciferase reaction. Assay results are presented as the percent inhibition of light emission compared to control. […]; type: functional; conditions: sporozoite, PBLUC_HILL_SLOPE 1.97, PBLUC_R_SQUARED 0.294, read-out: LUCIFERASE INFECTION ASSAY - IC50
READOUT_TYPE: pIC50
pIC50 field: float, defined as -log10 of concentration (mol/L).

Lab book: pIC50 of `CC(C)(C)c1cc(C(=O)N/N=C/c2ccc([N+](=O)[O-])s2)[nH]n1` noted as 5.44

---

test system: Plasmodium berghei; assay: Luciferase/luciferin-expressing antifolate-resistant parasites were used to infect a culture of HepG2 cells that were pre-incubated with compounds. Infected hepatocytes emit light due to the luciferase reaction. Assay results are presented as the percent inhibition of light emission compared to control. […]; format: functional; conditions: sporozoite, HEPG2TOX_HILL_SLOPE 2.39, HEPG2TOX_R_SQUARED 0.903, PBLUC_HILL_SLOPE 3.60, 2.97, PBLUC_R_SQUARED 0.951, 0.459, read-out: LUCIFERASE INFECTION ASSAY - IC50
READOUT_TYPE: IC50
Returns: string containing the number followed by the unit.

Lab book: IC50 of `C=CCNC(=O)NC(=O)CSc1nnc(-c2ccc(OC)cc2)n1-c1cccc(C(F)(F)F)c1` noted as 3.56 µM

---

system: Plasmodium berghei; assay: Luciferase/luciferin-expressing antifolate-resistant parasites were used to infect a culture of HepG2 cells that were pre-incubated with compounds. Infected hepatocytes emit light due to the luciferase reaction. Assay results are presented as the percent inhibition of light emission compared to control. […]; assay type: functional; conditions: sporozoite, HEPG2TOX_HILL_SLOPE 0.921, HEPG2TOX_R_SQUARED 0.948, PBLUC_HILL_SLOPE 0.805, PBLUC_R_SQUARED 0.912, read-out: LUCIFERASE INFECTION ASSAY - IC50
READOUT_TYPE: pIC50
pIC50 field: float, defined as -log10 of concentration (mol/L).

pIC50 value, target or system Plasmodium berghei, for `CN(C)c1ccc(-c2cnc3cnc(-c4ccc(O)cc4)cn23)cc1` : 6.94

---

test system: Plasmodium berghei; experiment: Luciferase/luciferin-expressing antifolate-resistant parasites were used to infect a culture of HepG2 cells that were pre-incubated with compounds. Infected hepatocytes emit light due to the luciferase reaction. Assay results are presented as the percent inhibition of light emission compared to control. […]; format: functional; details: sporozoite, read-out: LUCIFERASE INFECTION ASSAY - IC90
Below, each entry is listed alongside its reported IC90.

Reference set (3 entries):
{"columns": ["MOLECULE", "READOUT_TYPE", "RESULT"],
 "data": [
  ["O=C(c1ccccc1)C1(c2nc3ccccc3s2)Sc2ccccc2C1=O (configuration not stated)", "IC90", "7.72 µM"],
  ["CCCc1nc2ccccc2n1CC(=O)N1N=C(c2ccc(Cl)cc2)CC1c1ccco1 (configuration not stated)", "IC90", "> 10 µM"],
  ["Cc1nn(-c2ccc(C(=O)Nc3nc(CN4CCCC4)cs3)cc2)c(C)c1Cl", "IC90", "7.87 µM"]
]}

Lab book: IC90 of Cc1cccc(-n2c(SC(C)C(N)=O)nc3ccccc3c2=O)n1 (configuration not stated) noted as > 10 µM

Lab book: IC90 of `O=C(N/N=C1/C(=O)c2cccc3cccc1c23)c1ccccc1-n1cccc1` noted as > 10 µM

Lab book: IC90 of `O=c1[nH]nc(Sc2ncc([N+](=O)[O-])s2)n1Cc1ccccc1` noted as > 9.84 µM

Lab book: IC90 of `O=C(CCCNC(=O)c1ccsc1)NNC(=O)c1ccccc1O` noted as > 10 µM
